Value source: paper PMC4712096

In what follows, each item is paired with its IC50 for A3G (Homo sapiens).
Peptide text beside a SMILES is read from it.
Your answer should be a number followed by the unit of measure.

Example cases with answers are listed next.
[[record]]
compound = "CSCC[C@H](NC(=O)[C@H](Cc1c[nH]cn1)NC(=O)[C@H](Cc1c[nH]cn1)NC(=O)[C@H](CCCCN)NC(=O)[C@@H](N)C(C)C)C(=O)N[C@@H](Cc1ccc(O)cc1)C(=O)N[C@H](C(=O)N[C@@H](CO)C(=O)NCC(=O)N[C@@H](CCCCN)C(=O)N[C@@H](C)C(=O)N[C@@H](CCCNC(=N)N)C(=O)O)C(C)C"
property = "IC50"
result_value = "50 µM"

[[record]]
compound = "CSCC[C@H](NC(=O)[C@@H](N)CCCNC(=N)N)C(=O)N[C@@H](Cc1c[nH]cn1)C(=O)N[C@@H](CC(N)=O)C(=O)N[C@@H](CC(=O)O)C(=O)N[C@H](C(=O)N[C@@H](Cc1c[nH]c2ccccc12)C(=O)N[C@H](C(=O)N[C@@H](CC(C)C)C(=O)N[C@@H](CC(C)C)C(=O)N[C@@H](CC(N)=O)C(=O)N[C@@H](CCC(N)=O)C(=O)N[C@@H](CCCNC(=N)N)C(=O)N[C@@H](CCCNC(=N)N)C(=O)NCC(=O)O)C(C)C)[C@@H](C)O [Peptide A3G226-240] (H-RMHNDTWVLLNQRRG-OH)"
property = "IC50"
result_value = "60 µM"


IC50 value, target or system A3G (Homo sapiens), for CSCC[C@H](NC(=O)[C@H](C)NC(=O)[C@H](C)NC(=O)[C@H](CCCCN)NC(=O)[C@@H](N)C(C)C)C(=O)N[C@@H](Cc1ccc(O)cc1)C(=O)N[C@H](C(=O)N[C@@H](CO)C(=O)NCC(=O)N[C@@H](CCCCN)C(=O)N[C@@H](C)C(=O)N[C@@H](CCCNC(=N)N)C(=O)NCC(=O)N[C@@H](Cc1c[nH]c2ccccc12)C(=O)N[C@@H](Cc1ccccc1)C(=O)O)C(C)C [Vif 25-39 (27AA28)] (H-VKAAMYVSGKARGWF-OH) : 4.5 µM

----------
# Tested on: H9 cells
# ASSAY NOTES: Alkaline comet assay in H9 cells
# Assay type: cell-based
# TEST CONTEXT: no radiation; Tail DNA % and Olive Tail Moment
Peptide text beside a SMILES is read from it.
PROPERTY: DNA damage in non-irradiated H9 cells (comet assay)

[[record]]
molecule = "CC(C)C[C@H](NC(=O)[C@@H](N)CCCNC(=N)N)C(=O)N[C@@H](Cc1ccc(O)cc1)C(=O)N[C@@H](Cc1ccc(O)cc1)C(=O)N[C@@H](Cc1ccccc1)C(=O)N[C@@H](Cc1c[nH]c2ccccc12)C(=O)N[C@@H](CC(=O)O)C(=O)O [Peptide A3F305-311] (H-RLYYFWD-OH)"
result_value = "did not induce breaks"

[[record]]
molecule = "CC(C)C[C@H](NC(=O)[C@H](CCCNC(=N)N)NC(=O)[C@H](C)N)C(=O)N[C@@H](Cc1ccc(O)cc1)C(=O)N[C@@H](Cc1ccc(O)cc1)C(=O)N[C@@H](Cc1ccccc1)C(=O)N[C@@H](Cc1c[nH]c2ccccc12)C(=O)N[C@@H](CC(=O)O)C(=O)N[C@H](C(=O)O)[C@@H](C)O [Peptide A3F304-312] (H-ARLYYFWDT-OH)"
result_value = "did not induce breaks"


----------
In what follows, each item is paired with its IC50 for A3G (Homo sapiens, UniProt Q9HC16).
Peptide text beside a SMILES is read from it.
Give the value in µM but do not write µM after it.

Example cases with answers are listed next.
[[record]]
compound = "CC(C)C[C@H](NC(=O)[C@H](Cc1ccc(O)cc1)NC(=O)[C@@H](NC(=O)[C@H](CCC(=O)O)NC(=O)[C@H](Cc1cnc[nH]1)NC(=O)[C@H](CCCNC(=N)N)NC(=O)CNC(=O)[C@H](CCCNC(=N)N)NC(=O)[C@@H](NC(=O)[C@@H](N)Cc1c[nH]c2ccccc12)C(C)C)[C@@H](C)O)C(=O)N[C@@H](CS)C(=O)N[C@@H](Cc1ccc(O)cc1)C(=O)N[C@@H](CCC(=O)O)C(=O)N[C@H](C(=O)N[C@@H](CCC(=O)O)C(=O)O)C(C)C [Peptide A3G211-225] (H-WVRGRHETYLCYEVE-OH)"
property = "IC50"
readout_unit = "µM"
result_value = 10

[[record]]
compound = "CC(C)C[C@H](NC(=O)[C@@H](N)CCCNC(=N)N)C(=O)N[C@@H](Cc1ccc(O)cc1)C(=O)N[C@@H](Cc1ccc(O)cc1)C(=O)N[C@@H](Cc1ccccc1)C(=O)N[C@@H](Cc1c[nH]c2ccccc12)C(=O)N[C@@H](CC(=O)O)C(=O)O [Peptide A3F305-311] (H-RLYYFWD-OH)"
property = "IC50"
readout_unit = "µM"
result_value = 1


# compound CSCC[C@H](NC(=O)[C@H](Cc1c[nH]cn1)NC(=O)[C@H](Cc1c[nH]cn1)NC(=O)[C@H](CCCCN)NC(=O)[C@@H](N)C(C)C)C(=O)N[C@@H](Cc1ccc(O)cc1)C(=O)N[C@H](C(=O)N[C@@H](CO)C(=O)NCC(=O)N[C@@H](CCCCN)C(=O)N[C@@H](C)C(=O)N[C@@H](CCCNC(=N)N)C(=O)NCC(=O)N[C@@H](Cc1c[nH]c2ccccc12)C(=O)N[C@@H](Cc1ccccc1)C(=O)O)C(C)C ; its IC50 = 0.6

# compound CSCC[C@H](NC(=O)[C@H](C)NC(=O)[C@H](C)NC(=O)[C@H](C)NC(=O)[C@@H](N)C(C)C)C(=O)N[C@@H](Cc1ccc(O)cc1)C(=O)N[C@H](C(=O)N[C@@H](CO)C(=O)NCC(=O)N[C@@H](CCCCN)C(=O)N[C@@H](C)C(=O)N[C@@H](CCCNC(=N)N)C(=O)NCC(=O)N[C@@H](Cc1c[nH]c2ccccc12)C(=O)N[C@@H](Cc1ccccc1)C(=O)O)C(C)C [Vif 25-39 (26AAA28)] (H-VAAAMYVSGKARGWF-OH) ; its IC50 = 10

# compound CSCC[C@H](NC(=O)[C@H](Cc1c[nH]cn1)NC(=O)[C@H](Cc1c[nH]cn1)NC(=O)[C@H](C)NC(=O)[C@@H](N)C(C)C)C(=O)N[C@@H](Cc1ccc(O)cc1)C(=O)N[C@H](C(=O)N[C@@H](CO)C(=O)NCC(=O)N[C@@H](CCCCN)C(=O)N[C@@H](C)C(=O)N[C@@H](CCCNC(=N)N)C(=O)NCC(=O)N[C@@H](Cc1c[nH]c2ccccc12)C(=O)N[C@@H](Cc1ccccc1)C(=O)O)C(C)C [Vif 25-39 (26A)] ; its IC50 = 8

# compound CC(C)C[C@H](NC(=O)[C@H](CCCNC(=N)N)NC(=O)[C@H](C)N)C(=O)N[C@@H](Cc1ccc(O)cc1)C(=O)N[C@@H](Cc1ccc(O)cc1)C(=O)N[C@@H](Cc1ccccc1)C(=O)N[C@@H](Cc1c[nH]c2ccccc12)C(=O)N[C@@H](CC(=O)O)C(=O)N[C@H](C(=O)O)[C@@H](C)O [Peptide A3F304-312] (H-ARLYYFWDT-OH) ; its IC50 = 8
